measurementTarget: HCV NS3/4A protease complex (UniProt P27958, C1454S/C1711G, species not given)
Construct: fused on or other part: Three-lysine solubilising tail at the C-terminus of NS4A
testSummary: Recombinant HCV NS3/4A protease complex FRET peptide assay (strain not stated)
Format: biochemical
setupConditions: HCV NS3/4A protease enzyme assay, read-out: IC50 range
pIC50: −log10 of the molar value.
pIC50 values, listed per item

compound | pIC50
C=CC1C[C@]1(NC(=O)[C@@H]1C[C@@H](OC(=O)Nc2cccc(Cl)c2Cl)CN1C(=O)[C@@H](NC(=O)OC(C)(C)C)C(C)(C)C)C(=O)NS(=O)(=O)C1CC1 (some centres unmarked) | > 7.00
C=CC1C[C@]1(NC(=O)[C@@H]1C[C@@H](OC(=O)Nc2ccccc2OCC)CN1C(=O)[C@@H](NC(=O)OC(C)(C)C)C(C)(C)C)C(=O)NS(=O)(=O)C1CC1 (some centres unmarked) | > 7.00
C=CC1C[C@]1(NC(=O)[C@@H]1C[C@@H](OC(=O)NCc2ccccc2Cl)CN1C(=O)[C@@H](NC(=O)OC(C)(C)C)C(C)(C)C)C(=O)NS(=O)(=O)C1CC1 (some centres unmarked) | > 7.00
C=CC1C[C@]1(NC(=O)[C@@H]1C[C@@H](OC(=O)N[C@@H]2C[C@H]2c2ccccc2)CN1C(=O)[C@@H](NC(=O)OC(C)(C)C)C(C)(C)C)C(=O)NS(=O)(=O)C1CC1 (some centres unmarked) | > 7.00
C=CC1C[C@]1(NC(=O)[C@@H]1C[C@@H](OC(=O)Nc2ccccc2CC)CN1C(=O)[C@@H](NC(=O)OC(C)(C)C)C(C)(C)C)C(=O)NS(=O)(=O)C1CC1 (some centres unmarked) | 6.00 to 7.00

====

measurementTarget: human sputum elastase (HS) (Homo sapiens, UniProt P08246)
Sequence (P08246 30-267): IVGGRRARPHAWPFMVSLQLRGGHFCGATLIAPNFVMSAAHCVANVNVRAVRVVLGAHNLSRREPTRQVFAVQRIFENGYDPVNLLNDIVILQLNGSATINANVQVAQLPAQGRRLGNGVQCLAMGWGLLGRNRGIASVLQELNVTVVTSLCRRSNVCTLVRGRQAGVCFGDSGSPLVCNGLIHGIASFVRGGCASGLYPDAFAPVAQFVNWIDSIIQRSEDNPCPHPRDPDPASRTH
pIC50: −log10 of the molar value.
observable: pIC50

compound | observable | valueReported
C=CC1C[C@]1(NC(=O)[C@@H]1C[C@@H](OC(=O)Nc2ccccc2-c2ccccc2)CN1C(=O)[C@@H](NC(=O)OC(C)(C)C)C(C)(C)C)C(=O)NS(=O)(=O)C1CC1 (stereo partly shown) | pIC50 | < 4.00

====

IC50 values, listed per item
measurementTarget: HCV NS3/4A protease complex (UniProt P27958, C1454S/C1711G, species not given)
Construct: fused on or other part: Three-lysine solubilising tail at the C-terminus of NS4A
testSummary: Recombinant HCV NS3/4A protease complex FRET peptide assay (strain not stated)
Type: biochemical
setupConditions: HCV NS3/4A protease enzyme assay, read-out: IC50 range

compound | measurementTarget | IC50
C=CC1CC1(NC(=O)[C@@H]1C[C@@H](OC(=O)Nc2cccc(C(F)(F)F)c2)CN1C(=O)[C@@H](NC(=O)OC(C)(C)C)C(C)(C)C)C(=O)O (some centres unmarked) [Compound 109] | HCV NS3/4A protease complex (UniProt P27958, C1454S/C1711G, species not given) | > 10000 nM
C=CC1C[C@]1(NC(=O)[C@@H]1C[C@@H](OC(=O)Nc2cccc(C(C)=O)c2)CN1C(=O)[C@@H](NC(=O)OC(C)(C)C)C(C)(C)C)C(=O)NS(=O)(=O)C1CC1 (some centres unmarked) [Compound 47] | HCV NS3/4A protease complex (UniProt P27958, C1454S/C1711G, species not given) | 100 to 1000 nM
C=CC1C[C@]1(NC(=O)[C@@H]1C[C@@H](OC(=O)Nc2ccccc2CCC)CN1C(=O)[C@@H](NC(=O)OC(C)(C)C)C(C)(C)C)C(=O)NS(=O)(=O)C1CC1 (some centres unmarked) [Compound 66] | HCV NS3/4A protease complex (UniProt P27958, C1454S/C1711G, species not given) | < 100 nM
C=CC1C[C@]1(NC(=O)[C@@H]1C[C@@H](OC(=O)Nc2ccccc2C(C)(C)C)CN1C(=O)[C@@H](NC(=O)OC(C)(C)C)C(C)(C)C)C(=O)NS(=O)(=O)C1CC1 (some centres unmarked) [Compound 17] | HCV NS3/4A protease complex (UniProt P27958, C1454S/C1711G, species not given) | 100 to 1000 nM
C=CC1CC1(NC(=O)[C@@H]1C[C@@H](OC(=O)Nc2cc(C)ccc2F)CN1C(=O)[C@@H](NC(=O)OC(C)(C)C)C(C)(C)C)C(=O)O (some centres unmarked) [Compound 107] | HCV NS3/4A protease complex (UniProt P27958, C1454S/C1711G, species not given) | > 10000 nM

====

measurementTarget: HCV NS3/4A protease complex (UniProt P27958, C1454S/C1711G, species not given)
Construct: fused on or other part: Three-lysine solubilising tail at the C-terminus of NS4A
testSummary: Recombinant HCV NS3/4A protease complex FRET peptide assay (strain not stated)
Assay type: biochemical
setupConditions: HCV NS3/4A protease enzyme assay, read-out: IC50 range

compound | IC50
C=CC1CC1(NC(=O)[C@@H]1C[C@@H](OC(=O)NCc2ccccc2C)CN1C(=O)[C@@H](NC(=O)OC(C)(C)C)C(C)(C)C)C(=O)O (stereo partly drawn) | > 10 µM
C=CC1C[C@]1(NC(=O)[C@@H]1C[C@@H](OC(=O)Nc2ccccc2[N+](=O)[O-])CN1C(=O)[C@@H](NC(=O)OC(C)(C)C)C(C)(C)C)C(=O)NS(=O)(=O)C1CC1 (stereo partly drawn) | < 0.1 µM
C=CC1C[C@]1(NC(=O)[C@@H]1C[C@@H](OC(=O)Nc2cccc(C(=O)OCC)c2)CN1C(=O)[C@@H](NC(=O)OC(C)(C)C)C(C)(C)C)C(=O)NS(=O)(=O)C1CC1 (stereo partly drawn) | 0.1 to 1 µM

====

measurementTarget: HCV NS3/4A protease complex (UniProt P27958, C1454S/C1711G, species not given)
Construct: fused on or other part: Three-lysine solubilising tail at the C-terminus of NS4A
testSummary: Recombinant HCV NS3/4A protease complex FRET peptide assay (strain not stated)
Type: biochemical
setupConditions: read-out: IC50 range, HCV NS3/4A protease enzyme assay
Description: Recombinant HCV NS3/4A Protease Complex FRET Peptide Assay The purpose of this in vitro assay was to measure the inhibition of HCV NS3 protease complexes, derived from the BMS, H77C or J416S strains, as described below, by compounds of the present invention. This assay provides an indication of how effective compounds of the present invention would be in inhibiting HCV proteolytic activity. Serum from an HCV-infected patient was obtained from Dr. T. Wright, San Francisco Hospital. […]
pIC50: −log10 of the molar value.

molecule | pIC50
C=CC1C[C@]1(NC(=O)[C@@H]1C[C@@H](OC(=O)N(CC)CC)CN1C(=O)[C@@H](NC(=O)OC(C)(C)C)C(C)(C)C)C(=O)NS(=O)(=O)C1CC1 (some centres unmarked) | > 7.00
C=CC1C[C@]1(NC(=O)[C@@H]1C[C@@H](OC(=O)NCCc2ccccc2)CN1C(=O)[C@@H](NC(=O)OC(C)(C)C)C(C)(C)C)C(=O)NS(=O)(=O)C1CC1 (some centres unmarked) | 6.00 to 7.00
C=CC1C[C@]1(NC(=O)[C@@H]1C[C@@H](OC(=O)N(C(C)C)C(C)C)CN1C(=O)[C@@H](NC(=O)OC(C)(C)C)C(C)(C)C)C(=O)NS(=O)(=O)C1CC1 (some centres unmarked) | > 7.00
C=CC1C[C@]1(NC(=O)[C@@H]1C[C@@H](OC(=O)N(C)C)CN1C(=O)[C@@H](NC(=O)OC(C)(C)C)C(C)(C)C)C(=O)NS(=O)(=O)C1CC1 (some centres unmarked) | 6.00 to 7.00
C=CC1C[C@]1(NC(=O)[C@@H]1C[C@@H](OC(=O)Nc2cc(Cl)cc(Cl)c2)CN1C(=O)[C@@H](NC(=O)OC(C)(C)C)C(C)(C)C)C(=O)NS(=O)(=O)C1CC1 (some centres unmarked) | > 7.00

====

measurementTarget: HCV NS3/4A protease complex (UniProt P27958, C1454S/C1711G, species not given)
Construct: fused on or other part: Three-lysine solubilising tail at the C-terminus of NS4A
testSummary: Recombinant HCV NS3/4A protease complex FRET peptide assay (strain not stated)
Type: biochemical
setupConditions: read-out: IC50 range, HCV NS3/4A protease enzyme assay
pIC50: −log10 of the molar value.
observable: pIC50

compound | valueReported
C=CC1C[C@]1(NC(=O)[C@@H]1C[C@@H](OC(=O)Nc2ccccc2-c2ccccc2)CN1C(=O)[C@@H](NC(=O)OC(C)(C)C)C(C)(C)C)C(=O)NS(=O)(=O)C1CC1 (stereo partly drawn) [Compound 8] | > 7.00
C=CC1C[C@]1(NC(=O)[C@@H]1C[C@@H](OC(=O)Nc2c(CC)cccc2CC)CN1C(=O)[C@@H](NC(=O)OC(C)(C)C)C(C)(C)C)C(=O)NS(=O)(=O)C1CC1 (stereo partly drawn) [Compound 62] | 5.00 to 6.00
C=CC1C[C@]1(NC(=O)[C@@H]1C[C@@H](OC(=O)N(c2ccccc2)c2ccccc2)CN1C(=O)[C@@H](NC(=O)OC(C)(C)C)C(C)(C)C)C(=O)NS(=O)(=O)C1CC1 (stereo partly drawn) [Compound 39] | > 7.00
